- tgt: T1, human TNFα (Tumor Necrosis Factor-alpha), soluble (human, UniProt P01375 77-233)
- T1 construct: Recombinant (R&D 210-TA/CF) in screens; biotinylated in the limited antigen assay; also called hTNFα; H-TNFα
- procedure_summary: ELISA on chimeric/mutant TNFα
- From the text: In order to define the binding site for different antibodies, a number of residues of hTNFα were mutated using site directed mutagenesis. A panel of antibodies was screened for binding by an ELISA assay. […] Histidine at position 73 was deleted, an example is illustrated in Table 19.
measure: binding result

>  <binder>
250 (antibody, human IgG1, V domains shown, XENOMAX derived, recombinant human IgG1 kappa; also called 250Ab; SC250) VH: EVQLVESGGGLIQPGGSLRLSCAASGFTVSSNYMSWVRQAPGKGLEWVSVIYSGDRTYYADSVKGRFTISRDNSKNTLYLQMNSLRAEDTAVYYCARGEGGFDYWGQGTLVTVSS VL: EIVMTQSPATLSVSPGERATLSCRASQSVTSNLAWYQQKPGQAPRLLIHGASIRATGLPARFSGSGSGTEFTLTISSLQSEDFAVYYCQQYNYWWTFGQGTKVEIK

>  <measure>
binding result

>  <value>
binds

$$$$
